# System: Pseudomonas aeruginosa
# Experiment: Antimicrobial activity against Pseudomonas aeruginosa ATCC 27853 after 24 hrs by broth dilution method
# Assay type: functional
# Conditions: ATCC 27853, 24 h
Listed compounds paired with reported MIC
Express it in µg/mL; write the number only.

| Mol smiles | MIC (µg/mL) |
| --- | --- |
| CC(C)C[C@@H]1NC(=O)[C@H](CCCN)NC(=O)[C@H](C(C)C)NC(=O)[C@@H]2CCCN2C(=O)[C@@H](Cc2ccccc2)NC(=O)[C@H](CC(C)C)NC(=O)[C@H](CCCN)NC(=O)[C@H](C(C)C)NC(=O)[C@H](CCCN)NC(=O)[C@H](CC(C)C)NC(=O)[C@@H]2CCCN2C(=O)[C@@H](Cc2ccccc2)NC(=O)[C@H](C(C)C)NC(=O)[C@@H](CCCN)NC1=O | 8 |

Lab note: CC(C)C[C@@H]1NC(=O)[C@H](CCCN)NC(=O)[C@H](C(C)C)NC(=O)[C@@H]2CCCN2C(=O)[C@@H](Cc2ccccc2)NC(=O)[C@H](CC(C)C)NC(=O)[C@H](CCCN)NC(=O)[C@H](C(C)C)NC(=O)[C@H](CCCN)NC(=O)[C@H](CC(C)C)NC(=O)[C@@H]2O[C@H](CNC(=O)[C@H](C(C)C)NC(=O)[C@H](CCCN)NC1=O)[C@@H](O)[C@@H]2O gave MIC of 16

====

# Test system: Pseudomonas aeruginosa
# Experiment: Antimicrobial activity against Pseudomonas aeruginosa ATCC 27853 after 24 hrs by broth dilution method
# Assay type: functional
# Conditions: ATCC 27853, 24 h
Measurement type: MIC (µg/mL)
Express it in µg/mL; write the number only.

Field: example entries. Status: answers known.
| Mol smiles | Assayed target | Measurement type | Unit descriptor | Endpoint result |
| --- | --- | --- | --- | --- |
| CC(C)C[C@@H]1NC(=O)[C@H](CCCN)NC(=O)[C@H](C(C)C)NC(=O)[C@@H]2CCCN2C(=O)[C@@H](Cc2ccccc2)NC(=O)[C@H](CC(C)C)NC(=O)[C@H](CCCN)NC(=O)[C@H](C(C)C)NC(=O)[C@H](CCCN)NC(=O)[C@H](CC(C)C)NC(=O)[C@@H]2O[C@H](CNC(=O)[C@H](C(C)C)NC(=O)[C@@H](CCCN)NC1=O)[C@@H](OCc1ccccc1)[C@@H]2OCc1ccccc1 | Pseudomonas aeruginosa | MIC | µg/mL | 64 |
| CC(C)C[C@@H]1NC(=O)[C@H](CCCN)NC(=O)[C@H](C(C)C)NC(=O)[C@@H]2CCCN2C(=O)[C@@H](Cc2ccccc2)NC(=O)[C@H](CC(C)C)NC(=O)[C@H](CCCN)NC(=O)[C@H](C(C)C)NC(=O)[C@H](CCCN)NC(=O)[C@H](CC(C)C)NC(=O)[C@@H]2O[C@H](CNC(=O)[C@H](C(C)C)NC(=O)[C@H](CCCN)NC1=O)[C@@H](OCc1ccccc1)[C@@H]2OCc1ccccc1 | Pseudomonas aeruginosa | MIC | µg/mL | 16 |
| CC(C)C[C@@H]1NC(=O)[C@H](CCCN)NC(=O)[C@H](C(C)C)NC(=O)[C@@H]2CCCN2C(=O)[C@@H](Cc2ccccc2)NC(=O)[C@H](CC(C)C)NC(=O)[C@H](CCCN)NC(=O)[C@H](C(C)C)NC(=O)[C@H](CCCN)NC(=O)[C@H](CC(C)C)NC(=O)[C@@H]2O[C@H](CNC(=O)[C@H](C(C)C)NC(=O)[C@@H](CCCN)NC1=O)[C@@H](OCc1ccccc1)[C@@H]2O | Pseudomonas aeruginosa | MIC | µg/mL | 64 |
| CC(C)C[C@@H]1NC(=O)[C@H](CCCN)NC(=O)[C@H](C(C)C)NC(=O)[C@@H]2CCCN2C(=O)[C@@H](Cc2ccccc2)NC(=O)[C@H](CC(C)C)NC(=O)[C@H](CCCN)NC(=O)[C@H](C(C)C)NC(=O)[C@H](CCCN)NC(=O)[C@H](CC(C)C)NC(=O)[C@@H]2CCCN2C(=O)[C@@H](Cc2ccccc2)NC(=O)[C@H](C(C)C)NC(=O)[C@H](CCCN)NC1=O | Pseudomonas aeruginosa | MIC | µg/mL | 64 |

Lab note: CC(C)C[C@@H]1NC(=O)[C@H](CCCN)NC(=O)[C@H](C(C)C)NC(=O)[C@@H]2CCCN2C(=O)[C@@H](Cc2ccccc2)NC(=O)[C@H](CC(C)C)NC(=O)[C@H](CCCN)NC(=O)[C@H](C(C)C)NC(=O)[C@H](CCCN)NC(=O)[C@H](CC(C)C)NC(=O)[C@@H]2O[C@H](CNC(=O)[C@H](C(C)C)NC(=O)[C@H](CCCN)NC1=O)[C@@H](OCc1ccccc1)[C@@H]2O gave MIC of 16

Origin of measurements: ChEMBL document CHEMBL1811906
